These measurements were taken from the supplement of paper PMC11908140.

B1: library; numbered along this chain (parent)
chain: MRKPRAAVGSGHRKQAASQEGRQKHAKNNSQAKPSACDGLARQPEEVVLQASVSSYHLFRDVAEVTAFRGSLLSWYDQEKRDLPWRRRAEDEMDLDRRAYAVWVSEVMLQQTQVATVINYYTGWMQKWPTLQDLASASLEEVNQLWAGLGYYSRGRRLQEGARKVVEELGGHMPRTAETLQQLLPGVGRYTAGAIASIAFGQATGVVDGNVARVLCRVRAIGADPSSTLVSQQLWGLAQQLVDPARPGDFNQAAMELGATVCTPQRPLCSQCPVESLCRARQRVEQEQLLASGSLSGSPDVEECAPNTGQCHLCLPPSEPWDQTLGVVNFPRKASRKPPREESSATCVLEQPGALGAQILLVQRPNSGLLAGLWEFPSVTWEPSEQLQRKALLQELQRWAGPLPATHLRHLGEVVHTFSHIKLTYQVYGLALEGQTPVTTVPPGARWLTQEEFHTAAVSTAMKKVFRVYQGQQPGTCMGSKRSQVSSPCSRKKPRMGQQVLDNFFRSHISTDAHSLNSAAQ

Variants of: B1
assay-explanation: 8OG:A repair function score (normalized; synonymous = 0, nonsense = -1) (normalized log-likelihood score); higher = more repair activity (WT-like);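 further: cells sorted at 72 h after reporter transfection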
test-context: with 8OG:A DNA repair reporter (GFP) in HEK-293 MUTYH KO cells
Items are presented alongside their recorded 8OG:A repair function score.
assay-readout: 8OG:A repair function score

1. F505G : 0.00871
2. V438W : -0.131
3. A147G : -0.174
4. K493G : 0.0135
5. Q265A : -0.0137
6. D243T : -0.727
7. D300Q : -0.112
8. A253S : -0.559
9. P247E : -0.987
10. P474V : 0.00398
11. P174N : -0.958
12. E46C : 0.0656
13. A345N : -0.356
14. Y428V : -1.03
15. E275Q : 0.0396
